System: H929 myeloma cells
Format: cell-based
Settings: alanine scan and analogs, Table 4 legend, H929 cells
reported_endpoint: change in activity relative to the inverso peptide L-cINTEGRIN INTERACTION INHIBITORS

>>> result("CCCC[C@@H]1NC(=O)CN(S(C)(=O)=O)CCNC(=O)[C@H](CCCCN)NC(=O)[C@H](CC(C)C)NC(=O)[C@H](CCCCN)NC(=O)[C@H](CC(C)C)NC(=O)[C@H](CCCCN)NC(=O)CN(S(C)(=O)=O)CCNC(=O)[C@H](Cc2c[nH]c3ccccc23)NC(=O)[C@H](CO)NC(=O)[C@H](C(C)C)NC(=O)[C@H](C(C)C)NC1=O")
"increase in activity"
>>> result("CSCC[C@@H]1NC(=O)CN(S(C)(=O)=O)CCNC(=O)[C@H](CCCCN)NC(=O)[C@H](CC(C)C)NC(=O)[C@H](CCCCN)NC(=O)[C@H](CC(C)C)NC(=O)[C@H](CCCCN)NC(=O)CN(S(C)(=O)=O)CCNC(=O)[C@H](Cc2c[nH]c3ccccc23)NC(=O)[C@H](CO)NC(=O)[C@H](C(C)C)NC(=O)[C@H](C)NC1=O")
"increase in activity"
>>> result("CSCC[C@@H]1NC(=O)CN(S(C)(=O)=O)CCNC(=O)[C@H](CCCCN)NC(=O)[C@H](CC(C)C)NC(=O)[C@H](CCCCN)NC(=O)[C@H](CC(C)C)NC(=O)[C@H](CCCCN)NC(=O)CN(S(C)(=O)=O)CCNC(=O)[C@H](Cc2c[nH]c3ccccc23)NC(=O)[C@H](C)NC(=O)[C@H](C(C)C)NC(=O)[C@H](C(C)C)NC1=O")
"increase in activity"
